Test system: production of TNF-α in rat PBMCs
Assay: Inhibition of TNF-α production in rat PBMCs (LPS/IFN-γ stimulated, ELISA)
Format: cell-based
Conditions: PBMC; rat PBMCs, LPS + IFN-γ, 18 hours
measure-name: IC50 (mg/L)
Quick note: give the figure in mg/L, leave out the unit.

Would you please look over these solved cases?
                structure_smiles_string  measure_name  assay_value
0     CCCCC1=C(c2ccc(F)c(F)c2)C(=NO)CC1          IC50          0.3
1    ON=C1CCC(C2CCCC2)=C1c1ccc(F)c(F)c1          IC50        0.035
2  ON=C1CCC(C2CCCCC2)=C1c1ccc(F)c(Cl)c1          IC50         0.13
3   ON=C1CCC(C2CCCC2)=C1c1ccc2c(c1)OCO2          IC50        0.097
4    CC(C)CC1=C(c2cccc(C#N)c2)C(=NO)CC1          IC50         0.09

Please indicate recorded IC50 of CC(C)CC1=C(c2ccc(F)cc2)C(=NO)CC1 measured with production of TNF-α in rat PBMCs.
0.77

State recorded IC50 with production of TNF-α in rat PBMCs, entry ON=C1CCC(C2CCCC2)=C1c1cccc2c1oc1ccccc12 , no comment.
1

Send back production of TNF-α in rat PBMCs IC50 of CS(=O)(=O)c1cccc(C2=C(C3CCCC3)CCC2=NO)c1 only.
1.2

Report the value of IC50 obtained on production of TNF-α in rat PBMCs for OCc1cccc(C2=C(C3CCCC3)CCC2=NO)c1 .
1.5

Provide IC50, system production of TNF-α in rat PBMCs, entry ON=C1CCC(C2CCCCC2)=C1c1ccc(F)cc1
0.34

Lab note: record IC50 of CC(C)CC1=C(c2ccc(F)c(F)c2)C(=NO)CC1 tested on production of TNF-α in rat PBMCs.
0.27

Recall the reported IC50 of CCCCC1=C(c2ccc(F)cc2)C(=NO)CC1 when tested on production of TNF-α in rat PBMCs.
2

# return IC50 of CCCC1=C(c2cccc([N+](=O)[O-])c2)C(=NO)CC1 (system: production of TNF-α in rat PBMCs)
0.2

Name the value of IC50 reported for ON=C1CCC(C2CCCC2)=C1c1ccc(F)cc1 when tested on production of TNF-α in rat PBMCs.
0.12

Would you please give the reported IC50 of N#Cc1cccc(C2=C(C3CCCC3)CCC2=NO)c1 with production of TNF-α in rat PBMCs?
0.1

Check production of TNF-α in rat PBMCs data and give IC50 for COc1cccc(C2=C(C3CCCCC3)CCC2=NO)c1 .
0.49
